- EXPERIMENTAL PROTOCOL: Plasma pharmacokinetics (LC-MS/MS)
- Type: in vivo, human
- CONDITIONS: human, plasma, oral, 15 mg, cycle 1, day 1; 15 mg
- Experimental: Peripheral blood was collected serially to quantify plasma levels of sapanisertib for PK analysis via validated liquid chromatography tandem mass spectrometry with an assay range of 1–1000 ng/mL (MicroConstants, San Diego, CA), during both dose-escalation and expansion phases. Blood samples were collected before each dose and 0.5, 1, 2, 4, 8 and 24 h after dosing on cycle 1, day 1 and cycle 2, day 1, in the dose-escalation phase. […]
MEASUREMENT KIND: Cmax (ng/mL)
// note: answer is a bare numeric in ng/mL

[Q] // Input: CC(C)n1nc(-c2ccc3oc(N)nc3c2)c2c(N)ncnc21 [Sapanisertib] . Output its Cmax only.
[A] 56.7
